Entries and their switch fluorescence ratio
system: ATP; experiment: switch fluorescence ratio, 500 uM ATP over buffer (Cy3 cluster intensity, sum of 5 cycles each) (fold (ratio)); higher = stronger signal-on switching upon ATP binding; sequences stand for … in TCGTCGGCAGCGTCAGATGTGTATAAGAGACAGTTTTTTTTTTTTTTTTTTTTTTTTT…TC; details: aptamer strand: ATP DNA aptamer (quencher-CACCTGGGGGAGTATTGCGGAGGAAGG + anchor), 100 nM annealed; ATP concentration: 500 uM;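 further: ATP exposure 15 min at 22 °C before imaging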
endpointName: switch fluorescence ratio

>  <residueSequence>
AATGTCGAAA

>  <endpointName>
switch fluorescence ratio

>  <measured>
0.998

$$$$
>  <residueSequence>
ATGTTCAGTT

>  <endpointName>
switch fluorescence ratio

>  <measured>
0.974

$$$$
>  <residueSequence>
TTAAATATGG

>  <endpointName>
switch fluorescence ratio

>  <measured>
1.02

$$$$
>  <residueSequence>
GGGGTGGTAT

>  <endpointName>
switch fluorescence ratio

>  <measured>
0.99

$$$$
>  <residueSequence>
TATCAAAAAT

>  <endpointName>
switch fluorescence ratio

>  <measured>
0.994

$$$$
>  <residueSequence>
GCTGGGTGCA

>  <endpointName>
switch fluorescence ratio

>  <measured>
0.972

$$$$
>  <residueSequence>
TCTTTTCGTT

>  <endpointName>
switch fluorescence ratio

>  <measured>
1

$$$$
>  <residueSequence>
AGAGTGCGTA

>  <endpointName>
switch fluorescence ratio

>  <measured>
0.989

$$$$
>  <residueSequence>
CTGTGGGTCC

>  <endpointName>
switch fluorescence ratio

>  <measured>
0.976

$$$$
>  <residueSequence>
AATGAGAGTT

>  <endpointName>
switch fluorescence ratio

>  <measured>
0.991

$$$$
>  <residueSequence>
TCGGCCAGAG

>  <endpointName>
switch fluorescence ratio

>  <measured>
1.01

$$$$
>  <residueSequence>
GCATGGAAAT

>  <endpointName>
switch fluorescence ratio

>  <measured>
0.985

$$$$
>  <residueSequence>
TTTTATGTTT

>  <endpointName>
switch fluorescence ratio

>  <measured>
1

$$$$
